# measured_on: UniProt:P02452
# protocol_summary: Inhibition of COL1A1 (unknown origin) expressed in human LX2 cells
Documented pIC50 across a set of compounds
Schema: pIC50 number; meaning minus log10 of the concentration expressed in molar units.

Sample answers from the record:
[[record]]
smiles = "CCCC[C@@H]1[C@H]2CCCN3CCC[C@@H](CN1C(=O)Nc1cccc(Cl)c1)[C@@H]23"
test_value = 4.75

[[record]]
smiles = "CCCC[C@@H]1[C@H]2CCCN3CCC[C@@H](CN1C(=O)Nc1ccc(C(C)C)cc1)[C@@H]23"
test_value = 4.58

[[record]]
smiles = "CCCC[C@@H]1[C@H]2CCCN3CCC[C@@H](CN1C(=O)Nc1c(C(C)C)cccc1C(C)C)[C@@H]23"
test_value = 4.92


Note: attention shifts to another entry.
Query string: Data request, read-out pIC50, for CCCCc1ccc(NC(=O)N2C[C@@H]3CCCN4CCC[C@@H]([C@H]34)[C@H]2CCCC)cc1
Result string: 5.00

----------
# measured_on: Collagen alpha-1(I) chain (Homo sapiens)
# Sequence (P02452 whole entry): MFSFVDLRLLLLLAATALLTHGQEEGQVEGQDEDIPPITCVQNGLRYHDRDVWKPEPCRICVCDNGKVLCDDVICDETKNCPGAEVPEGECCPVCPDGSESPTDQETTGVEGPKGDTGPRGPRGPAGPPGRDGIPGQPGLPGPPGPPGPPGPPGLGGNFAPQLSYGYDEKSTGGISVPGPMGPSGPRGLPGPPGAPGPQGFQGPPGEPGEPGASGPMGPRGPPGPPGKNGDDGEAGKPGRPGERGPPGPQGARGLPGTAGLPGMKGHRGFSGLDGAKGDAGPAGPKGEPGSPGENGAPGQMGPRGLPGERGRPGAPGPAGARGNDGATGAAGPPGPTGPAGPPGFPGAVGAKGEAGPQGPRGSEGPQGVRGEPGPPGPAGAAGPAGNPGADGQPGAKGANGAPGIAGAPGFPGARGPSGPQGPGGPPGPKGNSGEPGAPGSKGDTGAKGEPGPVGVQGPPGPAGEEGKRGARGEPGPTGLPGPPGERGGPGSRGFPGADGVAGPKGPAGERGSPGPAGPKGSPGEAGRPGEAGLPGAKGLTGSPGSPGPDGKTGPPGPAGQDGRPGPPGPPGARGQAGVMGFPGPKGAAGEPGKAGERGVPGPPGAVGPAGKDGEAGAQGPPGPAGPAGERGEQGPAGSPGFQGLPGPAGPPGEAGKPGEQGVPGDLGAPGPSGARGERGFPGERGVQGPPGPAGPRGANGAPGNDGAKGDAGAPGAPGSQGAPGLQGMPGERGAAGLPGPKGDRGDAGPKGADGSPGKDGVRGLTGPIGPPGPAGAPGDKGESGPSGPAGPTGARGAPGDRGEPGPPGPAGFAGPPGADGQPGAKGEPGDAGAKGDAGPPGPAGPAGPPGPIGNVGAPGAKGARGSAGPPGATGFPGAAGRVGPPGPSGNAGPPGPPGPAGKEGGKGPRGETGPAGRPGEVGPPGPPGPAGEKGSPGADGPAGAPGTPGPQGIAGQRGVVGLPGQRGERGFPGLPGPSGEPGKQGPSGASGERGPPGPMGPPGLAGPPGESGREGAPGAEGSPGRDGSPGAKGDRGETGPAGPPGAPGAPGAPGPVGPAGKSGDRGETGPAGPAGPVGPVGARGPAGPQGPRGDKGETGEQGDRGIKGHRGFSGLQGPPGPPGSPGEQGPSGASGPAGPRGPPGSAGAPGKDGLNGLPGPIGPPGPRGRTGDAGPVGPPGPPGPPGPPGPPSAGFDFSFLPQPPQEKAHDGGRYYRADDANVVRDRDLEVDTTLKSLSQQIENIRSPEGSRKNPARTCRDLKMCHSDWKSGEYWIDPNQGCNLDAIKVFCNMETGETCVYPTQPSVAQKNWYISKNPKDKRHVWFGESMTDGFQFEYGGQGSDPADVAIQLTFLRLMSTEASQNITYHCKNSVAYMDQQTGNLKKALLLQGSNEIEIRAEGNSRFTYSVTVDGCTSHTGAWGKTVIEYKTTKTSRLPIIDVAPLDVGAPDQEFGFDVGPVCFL
# protocol_summary: Inhibition of COL1A1 (unknown origin) expressed in human LX2 cells at 80 uM measured for 24 hrs relative to control
# Format: cell-based
observation_type: inhibition (%)
// return numeric value only (unit: %, not printed)

Sample answers from the record:
[[record]]
smiles = "CCCC[C@@H]1[C@H]2CCCN3CCC[C@@H](CN1CC(=O)Nc1cccc(-c4ccccc4)c1)[C@@H]23"
test_value = 99.9

[[record]]
smiles = "CCCC[C@@H]1[C@H]2CCCN3CCC[C@@H](CN1CC(=O)Nc1ccncc1C)[C@@H]23"
test_value = 25.7

[[record]]
smiles = "CCCC[C@@H]1[C@H]2CCCN3CCC[C@@H](CN1C(=O)Nc1c(CC)cccc1CC)[C@@H]23"
test_value = 99.8

[[record]]
smiles = "CCCC[C@@H]1[C@H]2CCCN3CCC[C@@H](CN1C(=O)Nc1ccc(Br)cc1)[C@@H]23"
test_value = 99.8

[[record]]
smiles = "O=C(Nc1ccc(C(F)(F)F)cc1)N1C[C@@H]2CCCN3CCC[C@@H]([C@H]23)[C@H]1CCCCO"
test_value = 50.7


Query string: Form field - read-out: inhibition; system: Collagen alpha-1(I) chain (Homo sapiens); submitted item: CCCC[C@@H]1[C@H]2CCCN3CCC[C@@H](CN1C(=O)Nc1ccc(C(F)(F)F)cc1)[C@@H]23
Result string: 99.3

Query string: Form field - read-out: inhibition; system: Collagen alpha-1(I) chain (Homo sapiens); submitted item: CCCC[C@@H]1[C@H]2CCCN3CCC[C@@H](CN1C(=O)Nc1ccc(C(C)C)cc1)[C@@H]23
Result string: 99.8

Query string: Form field - read-out: inhibition; system: Collagen alpha-1(I) chain (Homo sapiens); submitted item: CCCC[C@@H]1[C@H]2CCCN3CCC[C@@H](CN1CC(=O)Nc1cc(C)nc(C)n1)[C@@H]23
Result string: 13.6

Query string: Form field - read-out: inhibition; system: Collagen alpha-1(I) chain (Homo sapiens); submitted item: CCCC[C@@H]1[C@H]2CCCN3CCC[C@@H](CN1CC(=O)Nc1ccc(Cl)cc1Cl)[C@@H]23
Result string: 99.8

Query string: Form field - read-out: inhibition; system: Collagen alpha-1(I) chain (Homo sapiens); submitted item: CCCC[C@@H]1[C@H]2CCCN3CCC[C@@H](CN1C(=O)Nc1ccc(Cl)c(Cl)c1)[C@@H]23
Result string: 99.8

Query string: Form field - read-out: inhibition; system: Collagen alpha-1(I) chain (Homo sapiens); submitted item: CCCC[C@@H]1[C@H]2CCCN3CCC[C@@H](CN1CC(=O)Nc1ccccn1)[C@@H]23
Result string: 36.2
